These entries and their values trace back to PubChem BioAssay.

procedureText: 384-well plate pilot, post-Golgi transport modulator project, inhibition of yeast transport mutant growth (AID 636); also: test concentration not given here
details: absorbance 615 nm, about 18 h, stronger effect = higher value
Could you please report measured inhibition for the items listed next?
Numbers only, in %.

C=CCOc1cccc(C2/C(=C(\O)c3ccc(F)cc3)C(=O)C(=O)N2CCN(C)C)c1 (stereo not given) ... -2.11
CCN1CCN(c2nc3c(C)cccn3c(=O)c2/C=C(\C#N)S(=O)(=O)c2ccccc2)CC1 ... -2.76
COCCN1CCN(c2c(C)c(C)nc3cc(-c4cccc(OC)c4)nn23)CC1 ... -5.45

Batch request: inhibition for each of the following compounds.
1. O=C(NCC1COc2ccccc2O1)C1CCCN(S(=O)(=O)c2cnc[nH]2)C1 (stereo not given)
2. CCCN(Cc1cc2ccc(C)cc2[nH]c1=O)C(=O)c1cccnc1
3. O=S1(=O)CC(N2CCCCC2)C(N2CCCCC2)C1 (stereo not given)
4. O=C(NCC1COCCO1)C1CCN(S(=O)(=O)c2ccccc2)CC1 (stereo not given)
5. Cc1ccc(-c2ccc(=O)n(CCC(=O)NCc3ccccn3)n2)cc1
6. CC(C)[C@H](NC(=O)OC(C)(C)C)c1nnc(SCc2cccc(F)c2)o1

Result ::
1: -2.13; 2: 0; 3: -2.99; 4: 1.2; 5: -3.95; 6: 0.13

Batch request: inhibition for each of the following compounds.
1. Cc1cc(C)c(NC(=O)C2CCCN2CCO)c(C)c1 (stereo not given)
2. CCn1c(COc2cccc3ccccc23)nnc1SCC(N)=O
3. O=C(c1cnsn1)N1CCN(c2ccccn2)CC1

Result ::
1: 0.79; 2: -4.21; 3: -0.66

Batch request: inhibition for each of the following compounds.
1. O=C(NC1CCCC1)c1ccc(S(=O)(=O)N2CCCC2)cc1
2. CC(=O)N1CCc2cc(Br)cc(S(=O)(=O)NCCCN3CCCC(C)C3)c21 (stereo not given)
3. CCC(=O)N1CCc2cc(S(=O)(=O)CCC(=O)Nc3c(C)n(C)n(-c4ccccc4)c3=O)ccc21
4. CC(NC(=O)Cc1cccs1)c1ccc2c(c1)OCO2 (stereo not given)
5. CC(C)c1ccc(S(=O)(=O)N2CCN(CCC(=O)Nc3ccc(N(C)C)cc3)CC2)cc1
6. CCOc1cc(C(=O)N(C)c2ccccc2)cc(OCC)c1OCC

Result ::
-1.08
-2.57
-2.93
-4.67
-3.29
-5.64

Batch request: inhibition for each of the following compounds.
1. CC(C)C1Cc2c(C#N)c(N)sc(=S)c2CO1 (stereo not given)
2. Fc1ccccc1C(c1nnnn1Cc1ccc2c(c1)OCO2)N1CCN(Cc2ccccc2)CC1 (stereo not given)
3. CCCn1c(SCC(=O)N2CCN(c3ccccc3)CC2)nc2ccccc2c1=O
4. CC(C)NC(=O)CSCc1ccccc1Cl
5. CCN(CC)c1ccc(CNc2ccc(Br)cn2)cc1
6. COC(=O)CCN1CCC(C(N)=O)CC1

Result ::
[-4.03, 2.16, 8.38, -3.33, -0.66, -6.8]

Batch request: inhibition for each of the following compounds.
1. Cc1ccc(-n2c(=O)[nH]c3c(C(N)=O)nc(CC(C)C)nc32)cc1
2. O=C1CC2CS(=O)(=O)CC2N1c1ccc(Oc2ccccc2)cc1 (stereo not given)
3. Cc1c(NS(=O)(=O)c2ccc3c(c2)c(=O)n(C)c(=O)n3C)c(=O)n(-c2ccccc2)n1C
4. Cn1c(=O)c(-c2ccccc2)nn2c3ccccc3nc12
5. CS(=O)(=O)N(CC(=O)NCc1ccccn1)c1ccc2c(c1)OCCO2
6. O=c1c2nnn(Cc3ccc(Cl)cc3)c2ncn1Cc1ccc(F)cc1

Result ::
1. -2.76
2. -5.47
3. -4.4
4. -7.03
5. -6.93
6. -9.86

Batch request: inhibition for each of the following compounds.
1. O=C(CP(=O)(CO)CO)c1ccc(Cl)cc1
2. O=C(NCc1ccc2c(c1)OCO2)C1CCCN(S(=O)(=O)c2cccnc2)C1 (stereo not given)
3. Cc1ccc(CNC(=O)C2CCN(S(=O)(=O)c3c(C)noc3C)CC2)cc1
4. CCc1ccc(NC(=O)C2CC(=O)N(C(C)C)C2)cc1 (stereo not given)
5. COc1cccc(NC(=O)CN2CCN(c3ccccc3F)CC2)c1

Result ::
1. -0.26
2. 0.38
3. -0.53
4. -4.13
5. -4.4

Batch request: inhibition for each of the following compounds.
1. CCOC(=O)c1ccc(-c2c(C(=O)OCC)oc3cc(O)c(CC)cc3c2=O)o1
2. CN(C)c1nc(N)nc(-c2nc3ccccc3s2)n1
3. CCC(NC(=O)Nc1cc(OC)c(OC)c(OC)c1)(C(F)(F)F)C(F)(F)F
4. O=C(Nc1cccnc1)c1cccc(NC(=O)c2ccco2)c1
5. CCOC(=O)N1CCN(Cc2cc(=O)oc3ccc4ccccc4c23)CC1
6. O=C(CCS(=O)(=O)c1cccc2nonc12)Nc1cccc2c1CCCC2

Result ::
1. -3.42
2. -6.62
3. -4.47
4. -1.56
5. -7.07
6. -6.44

Batch request: inhibition for each of the following compounds.
1. COCCn1c(SCC(=O)Nc2cccc(OC)c2)nnc1-c1ccccc1
2. Cc1csc(NC(=O)CSc2nsc(SCC(=O)Nc3nc(C)cs3)c2C#N)n1
3. CCNCCNC(=O)c1c(O)c2ccccc2n(CC)c1=O

Result ::
1. -3.51
2. -6.67
3. -4.87

Query :: So what does the record say about inhibition for COCCNC(=O)CC(NS(=O)(=O)c1ccc(NC(C)=O)cc1)C(C)C (stereo not given) ?
Result :: -4.74
